target system: His-ZZ-DYRK1B kinase domain (DYRK1B protein) (Homo sapiens, UniProt Q9Y463)
condition summary: read-out: DYRK1B –; inhibitor
Entries and their IC50
measured property: IC50 (µM)

C#Cc1cc(/C=C2\SC(=S)NC2=O)ccc1OC = 52
C#Cc1cc(/C=C2\SC(=S)NC2=O)ccc1O = 23
CCOc1cc(/C=C2\SC(=S)NC2=O)ccc1O = 3.6
COc1ccc(/C=C2\SC(=S)NC2=O)cc1 = 9.7

====

target system: His-ZZ-DYRK1A kinase domain (DYRK1A protein) (Homo sapiens, UniProt Q13627)
test details: luminescent kinase assay after transient heating
Assay type: biochemical
pIC50: −log10 of the molar value.
Listed below: pIC50 values for each entry.
measured property: pIC50

COc1ccc(/C=C2\SC(=S)NC2=O)cc1C#C[Si](C)(c1ccccc1)c1ccccc1 [compound 2, dp-FINDY] = 5.59
C#Cc1cc(/C=C2\SC(=S)NC2=O)ccc1OC [compound 11, RD0448] = 4.42

====

target system: His-ZZ-DYRK1B kinase domain (DYRK1B protein) (Homo sapiens, UniProt Q9Y463)
condition summary: read-out: DYRK1B Transient heating; with transient heating (20 sec); inhibitor
pIC50: −log10 of the molar value.
measured property: pIC50

COc1ccc(/C=C2\SC(=S)NC2=O)cc1/C=C/C(C)(C)C [dstb-dFINDY] = 5.13
COc1ccc(/C=C2\SC(=S)NC2=O)cc1C#C[Si]([Si](C)(C)C)([Si](C)(C)C)[Si](C)(C)C [ts-FINDY] = 5.34
COc1ccc(/C=C2\SC(=S)NC2=O)cc1C#C[Si](c1ccccc1)(c1ccccc1)c1ccccc1 [tp-FINDY] = 5.24

Ref: paper doi:10.1101/2025.01.15.632643v1
